# target_system: Cystic fibrosis transmembrane conductance regulator (Homo sapiens, UniProt P13569, F508DEL)
# Sequence (P13569 as listed by the source): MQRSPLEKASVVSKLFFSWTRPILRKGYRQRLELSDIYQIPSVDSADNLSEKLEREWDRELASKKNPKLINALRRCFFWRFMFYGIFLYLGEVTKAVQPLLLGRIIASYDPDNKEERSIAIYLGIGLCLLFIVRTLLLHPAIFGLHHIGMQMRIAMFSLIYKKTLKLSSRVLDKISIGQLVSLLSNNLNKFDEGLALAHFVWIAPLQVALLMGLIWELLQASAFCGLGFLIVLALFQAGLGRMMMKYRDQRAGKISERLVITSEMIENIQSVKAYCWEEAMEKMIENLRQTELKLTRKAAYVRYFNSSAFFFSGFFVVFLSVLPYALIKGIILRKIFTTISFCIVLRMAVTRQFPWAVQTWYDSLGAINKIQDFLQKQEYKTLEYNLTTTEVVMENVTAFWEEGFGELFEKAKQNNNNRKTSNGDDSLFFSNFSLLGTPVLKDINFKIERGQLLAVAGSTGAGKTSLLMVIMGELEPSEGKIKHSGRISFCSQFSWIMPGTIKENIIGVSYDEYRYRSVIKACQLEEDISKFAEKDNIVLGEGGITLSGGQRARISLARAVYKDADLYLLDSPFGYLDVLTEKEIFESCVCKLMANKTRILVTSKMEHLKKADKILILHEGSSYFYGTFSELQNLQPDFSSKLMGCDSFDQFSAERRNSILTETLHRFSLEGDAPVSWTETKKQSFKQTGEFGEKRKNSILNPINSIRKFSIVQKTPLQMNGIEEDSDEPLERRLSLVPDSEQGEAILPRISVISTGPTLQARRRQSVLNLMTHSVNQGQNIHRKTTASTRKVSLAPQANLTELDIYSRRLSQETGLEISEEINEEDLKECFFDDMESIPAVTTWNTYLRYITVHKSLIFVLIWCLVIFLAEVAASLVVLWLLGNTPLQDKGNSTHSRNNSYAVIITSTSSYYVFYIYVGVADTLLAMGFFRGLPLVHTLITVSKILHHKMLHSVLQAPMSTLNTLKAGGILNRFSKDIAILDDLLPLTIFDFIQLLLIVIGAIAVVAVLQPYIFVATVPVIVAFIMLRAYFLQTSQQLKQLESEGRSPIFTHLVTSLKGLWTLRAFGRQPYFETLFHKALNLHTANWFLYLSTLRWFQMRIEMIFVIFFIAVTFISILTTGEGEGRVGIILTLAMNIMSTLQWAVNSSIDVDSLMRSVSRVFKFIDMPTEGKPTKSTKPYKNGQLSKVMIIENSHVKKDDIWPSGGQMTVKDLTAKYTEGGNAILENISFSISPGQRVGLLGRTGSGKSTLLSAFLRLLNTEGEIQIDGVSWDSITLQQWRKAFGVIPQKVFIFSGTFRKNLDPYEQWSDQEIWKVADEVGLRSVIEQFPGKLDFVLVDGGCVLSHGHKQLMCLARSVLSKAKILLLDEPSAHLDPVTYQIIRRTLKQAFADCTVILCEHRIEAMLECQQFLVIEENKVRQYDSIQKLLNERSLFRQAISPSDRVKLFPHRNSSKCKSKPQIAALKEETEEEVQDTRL
# assay_notes: Correction of defective trafficking of human deltaF508 mutant CFTR protein expressed in FRT epithelial cells coexpressing YFP-H148Q/I152L protein assessed as iodide influx for 16 to 20 hrs by fluorescence assay
# condition: read-out: IC50 (the source's name)
quantity_kind: EC50 (µM)
Please respond with the number in µM and leave the unit unwritten.

Record summary for `COc1ccc(Cl)cc1Nc1nc(-c2sc(NC(=O)c3ccccc3)nc2C)cs1` : reported EC50 = 6

Record summary for `COc1ccc(Cl)cc1Nc1nc2c(s1)CCCCc1nc(NC(=O)C3CC3)sc1-2` : reported EC50 = 4.5

Record summary for `COc1ccc([N+](=O)[O-])cc1Nc1nc2c(s1)CCCc1nc(NC(=O)C(C)(C)C)sc1-2` : reported EC50 = 3.6

Record summary for `CN(C)c1cccc(Nc2nc3c(s2)CCCc2nc(NC(=O)C(C)(C)C)sc2-3)c1` : reported EC50 = 2.2

Record summary for CCC(C)C(=O)Nc1nc2c(s1)-c1nc(Nc3cc(Cl)ccc3OC)sc1CCCC2 (stereo not drawn) : reported EC50 = 2.9

Record summary for `CN(C)c1ccc(Cl)cc1Nc1nc2c(s1)CCCCc1nc(NC(=O)C(C)(C)C)sc1-2` : reported EC50 = 2.1

Record summary for `COc1ccc(Cl)cc1Nc1nc2c(s1)CCCCc1nc(NC(=O)c3ccno3)sc1-2` : reported EC50 = 6.6

Record summary for `COC(=O)CCC(=O)Nc1nc2c(s1)-c1nc(Nc3cc(Cl)ccc3OC)sc1CCC2` : reported EC50 = 8.8

Record summary for `COc1ccc(Cl)cc1Nc1nc2c(s1)CCCc1nc(NC(=O)c3ccno3)sc1-2` : reported EC50 = 4.8

Record summary for `CN(C)c1cccc(Nc2nc3c(s2)CCCCc2nc(NC(=O)C(C)(C)C)sc2-3)c1` : reported EC50 = 5.2

Record summary for `CN(C)c1ccc(Cl)cc1Nc1nc2c(s1)CCCc1nc(NC(=O)C(C)(C)C)sc1-2` : reported EC50 = 6.9

Record summary for `COc1ccc(Cl)cc1Nc1nc2c(s1)CCCc1nc(N)sc1-2` : reported EC50 = 11

Record summary for `COc1ccc(Cl)cc1Nc1nc2c(s1)CCCCc1nc(N)sc1-2` : reported EC50 = 9.2
